- STUDY TARGET: CRTH2 (Homo sapiens, UniProt Q9Y5Y4)
- Construct: expressed in transfected cells; host or cells: CHO cells
- Sequence (Q9Y5Y4 1-395): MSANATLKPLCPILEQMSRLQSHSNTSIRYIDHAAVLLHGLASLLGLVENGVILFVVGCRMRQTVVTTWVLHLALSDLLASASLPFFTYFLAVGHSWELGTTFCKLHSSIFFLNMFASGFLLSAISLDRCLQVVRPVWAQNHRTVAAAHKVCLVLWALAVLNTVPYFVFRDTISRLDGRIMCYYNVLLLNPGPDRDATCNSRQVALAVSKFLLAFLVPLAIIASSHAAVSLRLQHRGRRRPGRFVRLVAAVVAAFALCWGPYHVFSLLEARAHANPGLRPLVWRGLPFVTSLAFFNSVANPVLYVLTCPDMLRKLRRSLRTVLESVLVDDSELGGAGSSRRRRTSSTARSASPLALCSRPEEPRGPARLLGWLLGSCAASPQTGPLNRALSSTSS
- PROTOCOL DETAILS: Cellular Dielectric Spectroscopy in CHO-CRTH2 cells
- Format: cell-based
- PROTOCOL CONDITIONS: agonist activity without PGD2, read-out: EMax (CDS, partial agonist)
Form field: Emax (one value per entry).
Give your result in % as a bare value.

CC(C)CC(=O)N(Cc1ccc(S(C)(=O)=O)cc1)c1cc(F)cc(-c2nnn[nH]2)c1	27

Lookup result for `CS(=O)(=O)c1ccc(CN(C(=O)C2CCCC2)c2cc(F)cc(-c3nnn[nH]3)c2)cc1` ; measured Emax: 22

Lookup result for `CS(=O)(=O)c1ccc(CN(C(=O)Cc2ccccc2)c2cc(F)cc(-c3nnn[nH]3)c2)cc1` ; measured Emax: 32

Lookup result for `CCC(=O)N(Cc1ccc(S(C)(=O)=O)cc1)c1cc(F)cc(-c2nnn[nH]2)c1` ; measured Emax: 42

* * *

- STUDY TARGET: CRTH2 (Homo sapiens, UniProt Q9Y5Y4)
- Construct: expressed in transfected cells; host or cells: CHO cells
- PROTOCOL DETAILS: Cellular Dielectric Spectroscopy in CHO-CRTH2 cells
- Assay type: cell-based
- PROTOCOL CONDITIONS: agonist activity without PGD2, read-out: EC50(μM) (CDS, partial agonist)
Form field: EC50 (one value per entry).
Give your result in µM as a bare value.

CCC(=O)N(Cc1ccc(S(C)(=O)=O)cc1)c1cc(F)cc(-c2nnn[nH]2)c1	0.0011
CS(=O)(=O)c1ccc(CN(C(=O)C2CCCC2)c2cc(F)cc(-c3nnn[nH]3)c2)cc1	0.0024
CC(C)CC(=O)N(Cc1ccc(S(C)(=O)=O)cc1)c1cc(F)cc(-c2nnn[nH]2)c1	0.0011

Lookup result for `CS(=O)(=O)c1ccc(CN(C(=O)Cc2ccccc2)c2cc(F)cc(-c3nnn[nH]3)c2)cc1` ; measured EC50: 0.0012

* * *

- STUDY TARGET: CRTH2 (DP2) (Homo sapiens, UniProt Q9Y5Y4)
MEASURED PARAMETER: pIC50
pIC50 (log units): -log10 of the concentration in mol/L.

Field: example entries. Status: answers known.
CCCCC(=O)N(Cc1ccc(OC)cc1)c1cc(F)cc(-c2nnn[nH]2)c1	8.44
CCC(=O)N(Cc1cccc(-c2ccn[nH]2)c1)c1cc(F)cc(-c2nnn[nH]2)c1	7.52
CCC(=O)N(Cc1ccc(-c2ccccc2C)cc1)c1cc(F)cc(-c2nnn[nH]2)c1	8.05
CCC(=O)N(Cc1cccc(F)c1)c1cccc(-c2nnn[nH]2)c1	5.77
CCC(=O)N(Cc1ccc(-c2cc[nH]n2)cc1)c1cccc(-c2nnn[nH]2)c1	6.01

Lookup result for `CCCCC(=O)N(Cc1ccc2c(c1)OCCO2)c1cccc(-c2nnn[nH]2)c1` ; measured pIC50: 8.06

Lookup result for `CCC(=O)N(Cc1cccnc1)c1cccc(-c2nnn[nH]2)c1` ; measured pIC50: 5.17

Lookup result for `CCC(=O)N(Cc1ccc(-c2cccc(S(C)(=O)=O)c2)cc1)c1cc(F)cc(-c2nnn[nH]2)c1` ; measured pIC50: 6.73
